- tgt: T1, SWSAP1 (hSWS1-SWSAP1, WT);hSWS1 (Homo sapiens;Homo sapiens, UniProt Q6NVH7;Q19AV6 22-250;1-140, |)
- T1 sequence 1: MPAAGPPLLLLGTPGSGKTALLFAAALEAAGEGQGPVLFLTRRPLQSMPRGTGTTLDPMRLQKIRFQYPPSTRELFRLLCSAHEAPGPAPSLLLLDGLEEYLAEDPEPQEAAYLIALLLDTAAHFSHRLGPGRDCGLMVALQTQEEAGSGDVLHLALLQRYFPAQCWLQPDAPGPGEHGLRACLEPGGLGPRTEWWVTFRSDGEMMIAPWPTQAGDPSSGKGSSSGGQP
- T1 sequence 2: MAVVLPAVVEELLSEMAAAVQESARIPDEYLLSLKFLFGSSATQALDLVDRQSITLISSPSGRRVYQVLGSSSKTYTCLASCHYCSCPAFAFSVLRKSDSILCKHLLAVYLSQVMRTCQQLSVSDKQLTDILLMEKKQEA
- protocolSummary: fluorescence polarization; 2 mM ATP; FPA: 5 nM 6-FAM DNA, 37 C, 2 mM nucleotide where stated (buffer not given in material); EMSA: 0.05 uM 6-FAM DNA, 5%/15% native PAGE; RAD51 filaments: 2 mM ATP
- measurementSetup: protein: recombinant;recombinant; tags: N-terminal 6xHis-TEV, cleaved;none; copies: 1;1; label: 3' 6-FAM on strand 1; fork 1:2, 19 bp duplex, 20 nt arms
observable: Kd (µM)
Entry rule: numbers only, all in µM.

Lookup result for Fork (dsDNA) DNA 1: TTTTTTTTTTTTTTTTTTTTCTTGACAAGCTTGCGCACT DNA 2: AGTGCGCAAGCTTGTCAAGGCACTTTTTTTTTTTTTTTT ; measured Kd: 18.6

Values compiled from paper PMC12167799.
